# System: SNB-19
# assay.procedure: NCI tumour cell line growth inhibition, 48 h
Counter-ions that a name gives are not always drawn. Calls of active or inactive are those of the source. Cut-off read from the data, not from the text of the source: active = GI50 up to about 1.1 µM and inactive = higher.
Possible outcomes: 1 (active), 0 (inactive)

molecule | group.label
O=C1/C(=C/c2cccc3ccccc23)Cc2ccccc21 | 0
OC(CNc1ccccn1)c1ccccc1 (stereo unspecified) [PHENYRAMIDOL HYDROCHLORIDE] | 0
O=C1NCCCNCCCNCCCNC(=O)c2cccc1n2 | 0
CC(=O)Nc1ccc(C(=O)N[C@@H]2C(=O)N3[C@@H]2SC(C)(C)[C@@H]3C(=O)O)cn1 | 0
CCSCCCSCCSCC | 0
O=C(O)CCC(=O)OCN1C(=O)C2C3C=CC(C2C1=O)C1C2C(=O)N(COC(=O)CCC(=O)O)C(=O)C2C31 (stereo unspecified) | 0
O=C1CC(c2ccc(O)cc2)C2(O1)C(=O)OC(C(O)CO)C2O (stereo unspecified) | 0
COC1(OC)C[C@H](C)[C@@]23O[C@]24c2cc(O)c5c(c2N[C@H]3C#C/C=C\C#C[C@]14O)C(=O)c1ccccc1C5=O | 1
CCC1OC2C(CC=C(C)C)=C3OC(C)(O)C(C)(CC)C(O)C3=C3OC(=O)C=C1C32 (stereo unspecified) | 0
c1ccc(C(CCN2CC3CCC(CC3)C2)c2ccccc2)cc1 | 0
C=C(COC(C)=O)CC(/C=C(\C)CC/C=C(\C)CO)OC(C)=O (stereo unspecified) | 0
O=c1oc2ccc(Cl)cc2c2ccccc12 | 0
O=c1cc(-c2ccccc2)oc2c1ccc1nc3ccccc3c(O)c12 | 0
O=C(Nc1ccc(Cl)cc1)Oc1ccc(C(=S)Nc2ccc(Br)cc2)cc1 | 0
O=C(O)CNc1ccc2c(c1)Cc1cc(Br)ccc1-2 | 0
O=c1cc(O)c2c(O)cc(O)cc2o1 | 0
COc1cc2[nH]c(=O)c3cc(-c4ccccc4)cc4c(Cl)nc(c1OC)c2c43 | 0
C[C@]12CCC3C4=C(CCC3C1CCC2=O)C(=O)[C@H]1O[C@H]1C4=O (stereo partly specified) | 0
c1ccc2sc(SCN(C3CCCCC3)C3CCCCC3)nc2c1 | 0
Nc1ncc(Cc2nn3c(COc4ccc(Cl)cc4)nnc3s2)s1 | 0
CC1=C(CO)C(=O)OC(C(C)C2CCC3C4CC5OC56C(O)C(N5CC5)=CC(=O)C6(C)C4CCC23C)C1 (stereo unspecified) | 0
